Tested on: LYPLA2
Assay: LYPLA1/LYPLA2 inhibition with serine hydrolase anti-target selectivity, late-stage follow-up, selectivity assay for LYPLA1/LYPLA2 inhibitor project, cell lysate, mouse brain membrane proteome, FP-Rh fluorescence, powders (AID 743117)
Conditions: gel-based ABPP FP-Rh fluorescence, at 100 µM (top of the series)
The source made the active and inactive calls.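 How the source made its calls: active means 50% or more inhibition of both lipases LYPLA1 and LYPLA2, with off-target enzymes other than ABHD6 below 50%; inactive means below 50% on either lipase, or hitting an off-target enzyme.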
# valid calls are active, inactive; nothing else

CC(C)(C)OC(=O)N1CCN2C(=O)N(OC(=O)N3CCN(C(c4ccc(Cl)cc4)c4ccc(Cl)cc4)CC3)C(=O)C2C1 (centres undefined)    inactive
CN(C)c1ccc(C(=O)N2CCN3C(=O)N(OC(=O)N4CCC(CCc5ccc(Cl)cc5)CC4)C(=O)C3C2)cc1 (centres undefined)    active
O=C(ON1C(=O)C2CN(C(=O)N3CCCC3)CCN2C1=O)N1CCC(CCc2ccc(Cl)cc2)CC1 (centres undefined)    active

Query string: Short answer needed: outcome of this test for COc1ccc(C(=O)N2CCN3C(=O)N(OC(=O)N4CCC(CCc5ccc(Cl)cc5)CC4)C(=O)C3C2)cc1 (centres undefined) ?
Result string: active

----------
Target: UniProtKB Q8R2Y0
Sequence (Q8R2Y0 whole entry, looked up): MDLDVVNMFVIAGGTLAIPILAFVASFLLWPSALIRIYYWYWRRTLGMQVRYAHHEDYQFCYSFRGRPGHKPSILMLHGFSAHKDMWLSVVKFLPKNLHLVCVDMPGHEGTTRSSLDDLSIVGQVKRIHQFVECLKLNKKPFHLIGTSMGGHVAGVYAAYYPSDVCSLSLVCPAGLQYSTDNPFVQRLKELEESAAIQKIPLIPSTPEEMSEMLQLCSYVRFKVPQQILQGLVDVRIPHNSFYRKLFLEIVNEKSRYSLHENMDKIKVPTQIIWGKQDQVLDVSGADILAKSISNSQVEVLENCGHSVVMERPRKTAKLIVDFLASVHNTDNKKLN
Experiment: LYPLA1/LYPLA2 inhibition with serine hydrolase anti-target selectivity, late-stage follow-up, selectivity assay for LYPLA1/LYPLA2 inhibitor project, cell lysate, mouse brain membrane proteome, FP-Rh fluorescence, powders (AID 743117)
Settings: gel-based ABPP FP-Rh fluorescence, measured here: ABHD6 Selectivity, anti-target concentration >50% inhibition, stronger effect = lower value
Answer each item with its documented concentration for >50% inhibition.
One number for each entry, in µM.

Field: example entries. Status: answers known.
CC(C)(C)OC(=O)N1CCN2C(=O)N(OC(=O)N3CCC(C(=O)Nc4ccccc4)CC3)C(=O)C2C1 (stereo not drawn)    0.1
Cc1ccc(C(=O)N2CCN3C(=O)N(OC(=O)N4CCC(CCc5ccc(Cl)cc5)CC4)C(=O)C3C2)cc1 (stereo not drawn)    0.1

Consider the record given below.
Recorded concentration for >50% inhibition (compound COc1ccc(C(=O)N2CCN3C(=O)N(OC(=O)N4CCC(CCc5ccc(Cl)cc5)CC4)C(=O)C3C2)cc1 (stereo not drawn) ): 0.1

----------
System: MAGL Selectivity
Experiment: LYPLA1/LYPLA2 inhibition with serine hydrolase anti-target selectivity, late-stage follow-up, selectivity assay for LYPLA1/LYPLA2 inhibitor project, cell lysate, mouse brain membrane proteome, FP-Rh fluorescence, powders (AID 743117)
Conditions: gel-based ABPP FP-Rh fluorescence, measured here: MAGL Selectivity, anti-target concentration >50% inhibition, stronger effect = lower value
I'd be grateful if you could share measured concentration for >50% inhibition for these entries.
Give bare numbers, in µM.

Cc1ccc(C(=O)N2CCN3C(=O)N(OC(=O)N4CCC(CCc5ccc(Cl)cc5)CC4)C(=O)C3C2)cc1 (stereo not drawn)    100

For each of the molecules below, note its concentration for >50% inhibition.
1. O=C(Cc1ccccc1)N1CCN2C(=O)N(OC(=O)N3CCC(CCc4ccc(Cl)cc4)CC3)C(=O)C2C1 (stereo not drawn)
2. CC(C)(C)OC(=O)N1CCN2C(=O)N(OC(=O)N3CCC(CCc4ccc(Cl)cc4)CC3)C(=O)C2C1 (stereo not drawn)
3. O=C(ON1C(=O)C2CN(C(=O)N3CCCC3)CCN2C1=O)N1CCC(CCc2ccc(Cl)cc2)CC1 (stereo not drawn)
4. CC(C)(C)CC(=O)N1CCN2C(=O)N(OC(=O)N3CCC(CCc4ccc(Cl)cc4)CC3)C(=O)C2C1 (stereo not drawn)

Result string:
[10, 100, 100, 10]

Every entry's value here was drawn from PubChem BioAssay AID743117.
